Measured values drawn from patent US20240294499A1 for this set.

Reported Simple Western, % of protein reduction values follow for various compounds
Target: MCL-1 protein (Homo sapiens, UniProt Q07820)
Sequence (Q07820 whole entry): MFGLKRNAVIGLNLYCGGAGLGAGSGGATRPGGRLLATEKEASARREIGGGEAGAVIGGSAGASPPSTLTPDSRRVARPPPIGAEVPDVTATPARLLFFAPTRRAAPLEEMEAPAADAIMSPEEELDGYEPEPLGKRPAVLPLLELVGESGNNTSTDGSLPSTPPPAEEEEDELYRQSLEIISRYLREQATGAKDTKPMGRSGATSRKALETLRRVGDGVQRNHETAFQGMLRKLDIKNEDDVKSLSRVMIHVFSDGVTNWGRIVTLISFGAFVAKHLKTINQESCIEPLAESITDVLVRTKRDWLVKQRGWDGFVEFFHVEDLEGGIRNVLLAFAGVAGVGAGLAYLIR
Assay: OPM-2 cells: MCL-1 protein degradation, Simple Western
Type: cell-based
Parameters: endogenous in cells; host or cells: OPM-2
Details: OPM-2 cell line, 6 h treatment, 100 nM compound, vs DMSO

So for Cc1nn(C)c(COc2ccc(N3CCN(S(=O)(=O)N(C)C)CC3)cc2)c1-c1cccc2c(CCCOc3cccc4ccccc34)c(C(=O)O)n(CCN3CCN(C(=O)COc4cccc5c4CN(C4CCC(=O)NC4=O)C5=O)CC3)c12 (centres unmarked) , the logged Simple Western, % of protein reduction turned out to be ≥20%

So for Cc1nn(C)c(C)c1-c1c(Cl)ccc2c(CCCOc3cccc4ccccc34)c(C(=O)O)n(CCN3CCN(C(=O)COc4cccc5c4C(=O)N(C4CCC(=O)NC4=O)C5=O)CC3)c12 (centres unmarked) , the logged Simple Western, % of protein reduction turned out to be ≥40%

So for Cc1ccc2c(CCCOc3cccc4ccccc34)c(C(=O)O)n(CCN3CCN(C(=O)COc4cccc5c4C(=O)N(C4CCC(=O)NC4=O)C5=O)CC3)c2c1-c1c(C)nn(C)c1C (centres unmarked) , the logged Simple Western, % of protein reduction turned out to be ≥40%

So for Cc1c(-c2c(-c3ccc(F)o3)sc3ncnc(O[C@H](Cc4ccccc4OCc4ccnn4CC(F)(F)F)C(=O)NS(=O)(=O)CCNC(=O)CCOCCOCCNc4cccc5c4C(=O)N(C4CCC(=O)NC4=O)C5=O)c23)ccc(OCCN2CCN(C)CC2)c1Cl (some centres unmarked) , the logged Simple Western, % of protein reduction turned out to be ≥20%

Here is the next item to consider.
So for Cc1nn(C)c(C)c1-c1c(Cl)ccc2c(CCCOc3cccc4cc(F)ccc34)c(C(=O)O)n(CCN3CCN(C(=O)COc4cccc5c4C(=O)N(C4CCC(=O)NC4=O)C5=O)CC3)c12 (centres unmarked) , the logged Simple Western, % of protein reduction turned out to be ≥40%
